- SYSTEM NAME: T1, recombinant human VEGF165 (human, UniProt P15692 27-191)
- T1 construct: mature; Isoform VEGF165 of the entry; also called hVEGF165; hVEGF
- T1 sequence (P15692 other isoform, or with tags, fused parts or gaps): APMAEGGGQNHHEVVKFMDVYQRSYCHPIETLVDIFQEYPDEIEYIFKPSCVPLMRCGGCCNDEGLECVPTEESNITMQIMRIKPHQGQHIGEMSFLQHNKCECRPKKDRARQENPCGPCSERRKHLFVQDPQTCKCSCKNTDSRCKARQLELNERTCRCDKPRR
- TEST METHOD NOTES: Biacore SPR, VEGF immobilized, pH 5
OBSERVED PROPERTY: kon (M⁻¹ s⁻¹)

BINDER	OBSERVED PROPERTY	VALUE OBSERVED
578-max FW1.4_DHP (scFv, Tied by name only; also called Protein Nr; 960) scFv: EIVMTQSPSTLSASVGDRVIITCQASEIIHSWLAWYQQKPGKAPKLLIYLASTLASGVPSRFSGSGSGTQFTLTISSLQPDDFATYYCQNVYLASTNGANFGQGTKLTVLGGGGGSGGGGSGGGGSGGGGSEVQLVESGGGSVQPGGSLRLSCTASGFSLTDYYYMTWVRQAPGKGLEWVGFIDPDDDPYYATWAKGRFTISRDTSKNTVYLQMNSLRAEDTATYYCAGGDHNSGWGLDIWGQGTTVTVSS	kon	930000
511min_max (scFv, also called Protein Nr; 904) scFv: EIVMTQSPSTLSASVGDRVIITCQASQSINIWCSWYQQKPGKAPKLLIYRASTLASGVPSRFSGSGSGAEFTLTISSLQPDDFATYYCQANYAYSAGYGAAFGQGTKLTVLGGGGGSGGGGSGGGGSGGGGSEVQLVESGGGLVQPGGSLRLSCTVSGFSLNTYYMNWVRQAPGKGLEWVGIIAPDDTTYYASWAKSRSTISRDTSKNTVYLQMNSLRAEDTAVYYCARSGDTTAWGADIWGQGTLVTVSS	kon	366000
578min_max T84N_V89L (scFv, the VH entry already carries T84N and V89L; tied by name; also called Protein No. 1008) scFv: EIVMTQSPSTLSASVGDRVIITCQASEIIHSWLAWYQQKPGKAPKLLIYLASTLASGVPSRFSGSGSGAEFTLTISSLQPDDFATYYCQNVYLASTNGANFGQGTKLTVLGGGGGSGGGGSGGGGSGGGGSEVQLVESGGGLVQPGGSLRLSCTASGFSLTDYYYMTWVRQAPGKGLEWVGFIDPDDDPYYATWAKGRFTISRDNSKNTLYLQMNSLRAEDTAVYYCAGGDHNSGWGLDIWGQGTLVTVSS	kon	1.13e+06
